# Tgt: BuChE from equine serum (eqBuChE) (Equus caballus, UniProt P81908)
# Construct: BuChE from equine serum (eqBuChE); purchased Sigma-Aldrich (Steinheim, Germany); host or cells: equine serum
# Sequence (P81908 whole entry): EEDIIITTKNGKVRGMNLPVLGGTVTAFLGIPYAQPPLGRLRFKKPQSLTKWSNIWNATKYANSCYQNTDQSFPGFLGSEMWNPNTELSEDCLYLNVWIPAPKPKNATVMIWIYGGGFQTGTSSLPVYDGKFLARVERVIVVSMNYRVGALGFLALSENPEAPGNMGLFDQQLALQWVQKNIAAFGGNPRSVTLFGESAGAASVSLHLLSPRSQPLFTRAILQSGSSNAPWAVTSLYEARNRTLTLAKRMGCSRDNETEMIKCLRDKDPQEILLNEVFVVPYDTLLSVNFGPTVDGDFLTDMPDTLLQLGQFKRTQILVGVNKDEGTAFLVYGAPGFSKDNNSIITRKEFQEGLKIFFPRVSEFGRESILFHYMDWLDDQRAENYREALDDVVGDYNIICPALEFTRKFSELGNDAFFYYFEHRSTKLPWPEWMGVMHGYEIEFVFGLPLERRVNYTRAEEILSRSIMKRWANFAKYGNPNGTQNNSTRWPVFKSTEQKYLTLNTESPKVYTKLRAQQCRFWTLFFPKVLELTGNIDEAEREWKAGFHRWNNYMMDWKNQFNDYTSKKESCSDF
# Assay: biochemical
# Run Parameters: at 10 µM; read-out: eqBuChE % inh
Recorded measurements of inhibition at 10 µM, one per entry
Numeric answer only, unit % assumed.

Molecule	Tgt	inhibition at 10 µM [%]
CC(=O)c1ccc(OCCCCCN2CCC(C)CC2)cc1	BuChE from equine serum (eqBuChE) (Equus caballus, UniProt P81908)	43

inhibition at 10 µM of CCC(=O)c1ccc(OCCCCCCN2CCCC(C)C2)cc1 (centres unmarked) on BuChE from equine serum (eqBuChE) (Equus caballus, UniProt P81908)?
66

Give recorded inhibition at 10 µM with BuChE from equine serum (eqBuChE) (Equus caballus, UniProt P81908) for the following molecule: `CC(=O)c1ccc(OCCCCCCN2CCCCC2)cc1`
23

Form: Entry = `CCC(=O)c1ccc(OCCCCCN2CCCCC2)cc1` | System = BuChE from equine serum (eqBuChE) (Equus caballus, UniProt P81908) | inhibition at 10 µM = ____
32

Give BuChE from equine serum (eqBuChE) (Equus caballus, UniProt P81908) inhibition at 10 µM for CC(=O)c1ccc(OCCCCCCN2CCCC(C)C2)cc1.O=C(O)C(=O)O (centres unmarked)
18

###

# Assay: MTS assay in HepG2 cells
# Format: cell-based
# Run Parameters: human, HepG2 hepatoma cells; at 50 µM, percentage of control (vehicle-treated cells); read-out: HepG2 Cell Viability (%)
Readout Type: viability at 48 h, 50 µM (%)
Report the figure in % without appending any unit label.

For orientation, consider the following solved cases.
Molecule	viability at 48 h, 50 µM, %
CC(=O)c1ccc(OCCCCCCN2CCCC(C)C2)cc1.O=C(O)C(=O)O (stereo not shown)	72.4
CC(=O)c1ccc(OCCCCCN2CCCC(C)C2)cc1 (stereo not shown)	74.3
CCC(=O)c1ccc(OCCCCCN2CCCC(C)C2)cc1 (stereo not shown)	70.9

Shifting focus to the molecule that follows.
Request the reported viability at 48 h, 50 µM associated with `CC(=O)c1ccc(OCCCCCCN2CCC(C)CC2)cc1.O=C(O)C(=O)O`
77.5

###

Measured IC50 values are reported for all entries that follow.
# System: SH-SY5Y cells
# Assay: MTS assay in SH-SY5Y cells
# Type: cell-based
# Run Parameters: Homo sapiens, SH-SY5Y; MTS assay, 24 h of exposure
# Protocol: . After the indicated time, the MTS reagent was added directly to the cultured cells for 1 h, and then the absorbance at 490 nm was read. […] The results are presented in Table 2 and Figures S1 and S2 (Supplementary Materials). The hepatoma cell line HepG2 (ATCC® HB-8065TM) and SH-SY5Y CRL-2266 neuroblastoma cell line were used to evaluate the toxicity of tested compounds. Tests were conducted as described previously. […]
Give the value, in units of µM, as a plain number.

Consider the reported IC50 for these compounds:
Compound	Experimental Result
CCC(=O)c1ccc(OCCCCCN2CCCC(C)C2)cc1 (centres unmarked) [Compound 8]	349
CC(=O)c1ccc(OCCCCCN2CCCC(C)C2)cc1 (centres unmarked) [Compound 6]	149
CCC(=O)c1ccc(OCCCCCN2CCCCCC2)cc1.O=C(O)C(=O)O [Compound 16]	357
CCC(=O)c1ccc(OCCCCCN2CCC(C)CC2)cc1 [Compound 12]	421

Let us move to another entry and its IC50.
Quick check: IC50 of CCC(=O)c1ccc(OCCCCCCN2CCCCCC2)cc1.O=C(O)C(=O)O [Compound 17] ?
111

###

# Tgt: human H3 receptor (hH3R) (Homo sapiens, UniProt Q9Y5N1)
# Sequence (Q9Y5N1 whole entry): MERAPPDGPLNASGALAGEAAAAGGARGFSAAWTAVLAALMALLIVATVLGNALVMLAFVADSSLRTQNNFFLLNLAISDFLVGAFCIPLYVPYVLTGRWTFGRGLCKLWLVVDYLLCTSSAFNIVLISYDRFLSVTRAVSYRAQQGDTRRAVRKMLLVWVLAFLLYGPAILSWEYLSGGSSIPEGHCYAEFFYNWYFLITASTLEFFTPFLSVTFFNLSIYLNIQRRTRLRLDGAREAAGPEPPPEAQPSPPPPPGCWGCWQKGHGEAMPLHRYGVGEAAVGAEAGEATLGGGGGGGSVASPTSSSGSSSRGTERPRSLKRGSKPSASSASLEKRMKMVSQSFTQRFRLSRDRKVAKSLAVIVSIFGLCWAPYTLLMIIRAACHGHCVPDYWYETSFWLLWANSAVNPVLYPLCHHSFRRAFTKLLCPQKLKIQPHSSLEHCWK
Entries get a class label from measured Ki. See ranges: low bin = under 60 nM, mid bin = from 60 nM up to 80 nM, high bin = 80 nM and over

Solved cases (2 shown):
Compound	Assigned Class
CC(=O)c1ccc(OCCCCCN2CCC(C)CC2)cc1	high bin
CC(=O)c1ccc(OCCCCCCN2CCC(C)CC2)cc1.O=C(O)C(=O)O	high bin

Quick check: band for CC(=O)c1ccc(OCCCCCCN2CCCC(C)C2)cc1.O=C(O)C(=O)O (stereo not drawn)
mid bin

In plain terms, what class is `CC(=O)c1ccc(OCCCCCCN2CCCCC2)cc1` ?
mid bin

Entry `CCC(=O)c1ccc(OCCCCCN2CCC(C)CC2)cc1` belongs to which category?
low bin

# bin label for `CCC(=O)c1ccc(OCCCCCCN2CCC(C)CC2)cc1.O=C(O)C(=O)O`
low bin

Where would `CC(=O)c1ccc(OCCCCCN2CCCCCC2)cc1` land among the classes by reported Ki?
low bin

Please indicate the class for CCC(=O)c1ccc(OCCCCCN2CCCC(C)C2)cc1 (stereo not drawn) based on its Ki.
low bin

###

# Tgt: BuChE from equine serum (eqBuChE) (Equus caballus)
# Construct: BuChE from equine serum (eqBuChE); purchased Sigma-Aldrich (Steinheim, Germany); host or cells: equine serum
# Assay: biochemical
# Run Parameters: three independent experiments; read-out: eqBuChE IC50 Mean ± SEM
Readout Type: IC50

Compound	Tgt	IC50
CCC(=O)c1ccc(OCCCCCCN2CCCCC2)cc1.O=C(O)C(=O)O	BuChE from equine serum (eqBuChE) (Equus caballus)	1.35 µM
CCC(=O)c1ccc(OCCCCCN2CCCC(C)C2)cc1 (centres unmarked)	BuChE from equine serum (eqBuChE) (Equus caballus)	1.75 µM
CCC(=O)c1ccc(OCCCCCCN2CCCCCC2)cc1.O=C(O)C(=O)O	BuChE from equine serum (eqBuChE) (Equus caballus)	2.86 µM
CCC(=O)c1ccc(OCCCCCN2CCC(C)CC2)cc1	BuChE from equine serum (eqBuChE) (Equus caballus)	1.29 µM

Attention now shifts to the item below.
Recorded IC50 of `CCC(=O)c1ccc(OCCCCCN2CCCCCC2)cc1.O=C(O)C(=O)O` , please.
0.55 µM

###

# Tgt: AChE from electrophorus electricus (eeAChE) (Electrophorus electricus, UniProt O42275)
# Construct: purchased Sigma-Aldrich (Steinheim, Germany)
# Sequence (O42275 24-633): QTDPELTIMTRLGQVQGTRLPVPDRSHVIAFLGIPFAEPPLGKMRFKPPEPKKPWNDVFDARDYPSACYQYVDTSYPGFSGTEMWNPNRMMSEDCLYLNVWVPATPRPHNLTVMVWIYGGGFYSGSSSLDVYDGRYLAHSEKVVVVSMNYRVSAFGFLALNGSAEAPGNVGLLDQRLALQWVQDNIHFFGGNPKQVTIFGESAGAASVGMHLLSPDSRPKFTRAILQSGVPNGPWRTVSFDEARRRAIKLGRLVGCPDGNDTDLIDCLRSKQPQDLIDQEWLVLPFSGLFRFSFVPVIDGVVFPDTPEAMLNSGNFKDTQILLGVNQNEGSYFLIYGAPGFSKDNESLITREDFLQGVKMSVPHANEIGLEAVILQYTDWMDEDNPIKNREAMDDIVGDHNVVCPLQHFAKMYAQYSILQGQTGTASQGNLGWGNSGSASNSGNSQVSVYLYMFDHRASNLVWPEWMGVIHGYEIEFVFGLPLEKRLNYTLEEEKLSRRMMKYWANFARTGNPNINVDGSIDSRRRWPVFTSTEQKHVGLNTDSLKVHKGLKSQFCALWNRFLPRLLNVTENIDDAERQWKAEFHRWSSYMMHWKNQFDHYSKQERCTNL
# Assay: modified Ellman colorimetric assay, eeAChE
# Type: biochemical
# Run Parameters: at 10 µM; read-out: eeAChE % inh
We begin with a simple list: items and their reported inhibition at 10 µM.
Report the figure in % without appending any unit label.

Sample records with inhibition at 10 µM:
Molecule	Readout Type	Unit Abbrev	Experimental Result
CC(=O)c1ccc(OCCCCCCN2CCCCCC2)cc1	inhibition at 10 µM	%	67
CCC(=O)c1ccc(OCCCCCN2CCC(C)CC2)cc1	inhibition at 10 µM	%	58
CC(=O)c1ccc(OCCCCCN2CCC(C)CC2)cc1	inhibition at 10 µM	%	60
CC(=O)c1ccc(OCCCCCN2CCCCCC2)cc1	inhibition at 10 µM	%	63
CC(=O)c1ccc(OCCCCCCN2CCCCC2)cc1	inhibition at 10 µM	%	67
CCC(=O)c1ccc(OCCCCCCN2CCCC(C)C2)cc1 (centres unmarked)	inhibition at 10 µM	%	68
CCC(=O)c1ccc(OCCCCCN2CCCCC2)cc1	inhibition at 10 µM	%	49

The record that follows has no inhibition at 10 µM shown yet.
Any idea what inhibition at 10 µM came out for `CC(=O)c1ccc(OCCCCCN2CCCCC2)cc1` on AChE from electrophorus electricus (eeAChE) (Electrophorus electricus, UniProt O42275)?
45

###

# Tgt: hMAO B (Homo sapiens)
# Construct: purchased Sigma-Aldrich (Steinheim, Germany)
# Sequence (P27338 1-520): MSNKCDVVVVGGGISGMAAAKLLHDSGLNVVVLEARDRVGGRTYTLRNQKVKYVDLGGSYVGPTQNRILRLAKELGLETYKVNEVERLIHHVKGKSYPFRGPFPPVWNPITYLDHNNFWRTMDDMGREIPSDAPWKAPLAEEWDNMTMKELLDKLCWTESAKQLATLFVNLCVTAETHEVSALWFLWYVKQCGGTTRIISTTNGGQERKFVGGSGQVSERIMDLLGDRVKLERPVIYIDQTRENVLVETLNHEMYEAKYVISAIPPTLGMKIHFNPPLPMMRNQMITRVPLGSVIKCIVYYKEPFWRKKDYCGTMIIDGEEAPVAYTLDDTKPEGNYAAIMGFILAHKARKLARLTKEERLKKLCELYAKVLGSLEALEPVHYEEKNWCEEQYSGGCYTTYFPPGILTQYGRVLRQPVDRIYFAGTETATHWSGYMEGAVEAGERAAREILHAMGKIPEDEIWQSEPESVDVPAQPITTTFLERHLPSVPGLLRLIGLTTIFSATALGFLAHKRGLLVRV
# Assay: fluorometric Amplex red MAO assay
# Format: biochemical
# Run Parameters: at 1 µM; two independent experiments; read-out: hMAO B % inh
# inhibition at 1 µM annotations
Please respond with the number in % and leave the unit unwritten.

Observe how each entry below is paired with its result.
Compound	Unit Abbrev	Experimental Result
CC(=O)c1ccc(OCCCCCN2CCCCC2)cc1	%	2
CC(=O)c1ccc(OCCCCCCN2CCCCC2)cc1	%	3
CC(=O)c1ccc(OCCCCCN2CCCCCC2)cc1	%	37

What does the record list as inhibition at 1 µM for `CC(=O)c1ccc(OCCCCCN2CCC(C)CC2)cc1` ?
0

Recorded inhibition at 1 µM for CC(=O)c1ccc(OCCCCCCN2CCCC(C)C2)cc1.O=C(O)C(=O)O (stereo not shown) , please?
0

Need inhibition at 1 µM of `CC(=O)c1ccc(OCCCCCCN2CCC(C)CC2)cc1.O=C(O)C(=O)O` , thanks.
0

For CCC(=O)c1ccc(OCCCCCN2CCCC(C)C2)cc1 (stereo not shown) , what is its reported inhibition at 1 µM?
19

Field request: inhibition at 1 µM | item: CCC(=O)c1ccc(OCCCCCCN2CCCC(C)C2)cc1 (stereo not shown)
12

I have this compound here, `CCC(=O)c1ccc(OCCCCCCN2CCCCC2)cc1.O=C(O)C(=O)O` , and I need its recorded inhibition at 1 µM.
22

# credit: paper PMC10005104
